- System: TNFα
- Test: Bioassay of TNFα production by LPS activated RAW 264.7 macrophages using L929 cell line
- Assay type: cell-based
- Stated conditions: Mus musculus; L929 + ActD + supernatant from LPS + compound (10 μM) treated RAW 264.7 macrophage; crystal violet; mean ± S.D. of triplicate; read-out: PERCENTAGE CELL SURVIVAL ± S.D.
Readout kind: viability at 10 µM (%)

[[record]]
compound = "COC(=O)/C=C/c1cc(OC)c2c(c1)[C@@H](C(=O)OC)[C@H](c1ccc(OC(=O)/C=C/c3ccc(O)cc3)c(OC)c1)O2 [compound 24]"
quantitative_result = 50.3

[[record]]
compound = "C/C=C/c1ccc(OC(=O)c2ccc(O)c(OC)c2)c(OC)c1 [compound 14]"
quantitative_result = 51

[[record]]
compound = "COC(=O)c1ccccc1OC(=O)/C=C/c1ccc(O)c(O)c1 [compound 3]"
quantitative_result = 67

[[record]]
compound = "C/C=C/c1cc(OC)c2c(c1)[C@@H](C)[C@H](c1ccc(OC(=O)/C=C/c3ccc(O)c(O)c3)c(OC)c1)O2 (racemic) [compound 5]"
quantitative_result = 67.8

[[record]]
compound = "COc1cc(C=O)ccc1OC(=O)/C=C/c1ccc(O)cc1 [compound 19]"
quantitative_result = 51.6

[[record]]
compound = "C/C=C/c1cc(OC)c2c(c1)[C@@H](C)[C@H](c1ccc(OC(=O)/C=C/c3ccc(O)cc3)c(OC)c1)O2 (racemic) [compound 29]"
quantitative_result = 50.6

[[record]]
compound = "COC(=O)c1ccc(OC(=O)/C=C/c2ccc(O)c(O)c2)c(OC)c1 [compound 1]"
quantitative_result = 73.2


Ref: patent US20100168228A1
